Listed here: items and their measured pEC50.
system_name: Somatostatin Receptor 2 (SSTR2) (Homo sapiens)
Sequence (P30874 whole entry, species assumed): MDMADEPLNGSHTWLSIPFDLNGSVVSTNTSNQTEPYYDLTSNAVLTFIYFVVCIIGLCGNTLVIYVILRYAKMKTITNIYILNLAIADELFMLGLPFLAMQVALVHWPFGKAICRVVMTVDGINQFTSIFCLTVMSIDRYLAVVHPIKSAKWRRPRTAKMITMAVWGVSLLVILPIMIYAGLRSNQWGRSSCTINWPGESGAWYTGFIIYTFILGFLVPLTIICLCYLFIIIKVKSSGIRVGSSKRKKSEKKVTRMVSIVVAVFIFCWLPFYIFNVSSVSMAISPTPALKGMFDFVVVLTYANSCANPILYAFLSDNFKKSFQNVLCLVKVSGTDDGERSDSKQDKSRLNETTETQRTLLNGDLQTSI
measurement_protocol: Biochemical Assay for Activation of Somatostatin Receptor 2 (SSTR2), Cisbio HTRF cAMP assay
recorded_conditions: average pEC50; HTRF cAMP assay in stably-transfected cell line expressing SSTR2; cells incubated with compounds for 1-2h
pEC50: −log10 of the molar value.
value_type: pEC50

| compound_structure | endpoint_result |
| --- | --- |
| CO[C@@H]1CN(c2c(-c3cc(F)cc(F)c3)cnc3c2nc(-c2cc(F)cc(C(N)=O)c2)n3C)CC[C@H]1N | < 5.30 |
| COCOc1c(C#N)cccc1-c1ccc2ncc(-c3cc(F)cc(F)c3)c(-n3ccc([N+](=O)[O-])c3)c2c1 | < 5.00 |
| Cn1c(-c2ccc3[nH]c(=O)[nH]c3c2)nc2c(N3CCC(N)CC3)c(-c3cc(F)cc(F)c3)cnc21 | < 5.00 |

Where do these numbers come from? They come from patent US20260053794A1.
